Biological target: T1, murine IL-11 (mouse, UniProt P47873 22-199)
T1 sequence: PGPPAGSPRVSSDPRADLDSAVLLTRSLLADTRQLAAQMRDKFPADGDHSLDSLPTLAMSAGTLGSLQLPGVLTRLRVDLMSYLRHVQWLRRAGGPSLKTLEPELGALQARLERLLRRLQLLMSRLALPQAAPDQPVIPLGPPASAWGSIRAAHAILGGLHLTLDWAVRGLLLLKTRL
Test: cell-based or functional assay
Documented RGA IC50 across a set of binders
Answer format: numeric, nM implied, no suffix.

binder	unit_info	RGA IC50
TPP-26306 (antibody, V domains shown) VH: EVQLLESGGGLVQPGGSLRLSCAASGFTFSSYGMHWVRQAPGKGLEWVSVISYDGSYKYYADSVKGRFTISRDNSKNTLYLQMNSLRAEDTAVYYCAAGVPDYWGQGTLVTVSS VL: QSVLTQPPSASGTPGQRVTISCTGSSSNIGAGYDVHWYQQLPGTAPKLLIYSNNERPSGVPDRFSGSKSGTSASLAISGLRSEDEADYYCAAWDQSLNGPVFGGGTKLTVL	nM	1.5
TPP-26308 (antibody, V domains shown) VH: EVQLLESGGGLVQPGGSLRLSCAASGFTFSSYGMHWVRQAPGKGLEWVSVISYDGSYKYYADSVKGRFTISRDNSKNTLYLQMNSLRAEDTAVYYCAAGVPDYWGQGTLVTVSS VL: QSVLTQPPSASGTPGQRVTISCTGSSSNIGAGYDVHWYQQLPGTAPKLLIYSNNERPSGVPDRFSGSKSGTSASLAISGLRSEDEADYYCAAWDVSLNGPVFGGGTKLTVL	nM	1.3
TPP-26326 (antibody, V domains shown) VH: EVQLLESGGGLVQPGGSLRLSCAASGFTFSYYGMHWVRQAPGKGLEWVSVISYDGSYKYYADSVKGRFTISRDNSKNTLYLQMNSLRAEDTAVYYCAAGVPDYWGQGTLVTVSS VL: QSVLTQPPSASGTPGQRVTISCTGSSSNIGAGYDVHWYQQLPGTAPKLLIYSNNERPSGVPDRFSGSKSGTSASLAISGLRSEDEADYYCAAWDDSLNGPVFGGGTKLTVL	nM	2
TPP-26296 (antibody, V domains shown) VH: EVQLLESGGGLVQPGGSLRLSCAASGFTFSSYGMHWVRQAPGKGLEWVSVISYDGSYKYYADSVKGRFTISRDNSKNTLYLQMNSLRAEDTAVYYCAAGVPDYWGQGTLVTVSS VL: QSVLTQPPSASGTPGQRVTISCTGSSSNIGAGYDVHWYQQLPGTAPKLLIYSNNERPSGVPDRFSGSKSGTSASLAISGLRSEDEADYYCAAWDNSLNGPVFGGGTKLTVL	nM	2.9

Kindly indicate its recorded RGA IC50. Item: TPP-26309 (antibody, V domains shown) VH: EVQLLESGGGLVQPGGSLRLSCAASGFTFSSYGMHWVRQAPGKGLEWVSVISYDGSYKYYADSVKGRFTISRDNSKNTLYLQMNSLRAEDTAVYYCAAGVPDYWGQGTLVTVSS VL: QSVLTQPPSASGTPGQRVTISCTGSSSNIGAGYDVHWYQQLPGTAPKLLIYSNNERPSGVPDRFSGSKSGTSASLAISGLRSEDEADYYCAAWDFSLNGPVFGGGTKLTVL
0.94

Attribution: patent US20240317847A1
